# Tested on: NCI-H1993
# method: relative viability (nuclei count vs DMSO), 5 days (fraction); higher = more cells survive
# cond: first compound 0.05 µM

compound: COc1cc2nccc(Oc3ccc(NC(=O)Nc4cc(C)on4)c(Cl)c3)c2cc1OC [Tivozanib] + COc1cccc2cc(-c3nc([C@H]4CC[C@H](C(=O)O)CC4)n4ncnc(N)c34)[nH]c12 [OSI-027] (partner 0.5 µM)
relative viability: 0.543
--
compound: COc1cc2nccc(Oc3ccc(NC(=O)Nc4cc(C)on4)c(Cl)c3)c2cc1OC [Tivozanib] + CCNC(=O)c1noc(-c2cc(C(C)C)c(O)cc2O)c1-c1ccc(CN2CCOCC2)cc1 [Luminespib] (partner 0.01 µM)
relative viability: 0.955
--
compound: Nc1ccn([C@@H]2O[C@H](CO)[C@@H](O)[C@@H]2O)c(=O)n1 [Cytarabine] + CCNC(=O)c1noc(-c2cc(C(C)C)c(O)cc2O)c1-c1ccc(CN2CCOCC2)cc1 [Luminespib] (partner 0.01 µM)
relative viability: 0.695
--
compound: Nc1ccn([C@@H]2O[C@H](CO)[C@@H](O)[C@@H]2O)c(=O)n1 [Cytarabine] + COc1cc2c(Oc3ccc(NC(=O)C4(C(=O)Nc5ccc(F)cc5)CC4)cc3F)ccnc2cc1OCCCN1CCOCC1 [Foretinib] (partner 0.25 µM)
relative viability: 0.726
